Molecular target: human V1a receptor (Homo sapiens)
Sequence (P37288 whole entry): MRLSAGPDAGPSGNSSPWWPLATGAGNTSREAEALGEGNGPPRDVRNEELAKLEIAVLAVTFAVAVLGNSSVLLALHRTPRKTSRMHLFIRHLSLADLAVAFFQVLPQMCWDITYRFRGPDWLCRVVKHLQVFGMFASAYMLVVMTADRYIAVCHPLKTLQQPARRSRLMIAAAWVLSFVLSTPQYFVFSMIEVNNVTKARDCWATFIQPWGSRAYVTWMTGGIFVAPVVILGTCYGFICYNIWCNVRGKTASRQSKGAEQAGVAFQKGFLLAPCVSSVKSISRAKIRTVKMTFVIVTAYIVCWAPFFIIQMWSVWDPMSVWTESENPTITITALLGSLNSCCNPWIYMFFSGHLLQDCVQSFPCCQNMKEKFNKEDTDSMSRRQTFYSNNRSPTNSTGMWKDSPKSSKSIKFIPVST
Assay: V1a binding assay (3H-AVP displacement, HEK-293 membranes)
Design: expressed in transfected cells; host or cells: HEK-293 (membranes)
pIC50: −log10 of the molar value. Counter-ions that a name gives are not always drawn.
# pIC50 per entry

compound: O=c1n(CCCN2CCCCC2)c2ccccc2n1C1CCN(C(=S)NCc2ccc(Cl)cc2Cl)CC1
experimentalSystem: human V1a receptor (Homo sapiens)
pIC50: 7.07
//
compound: NCCn1c(=O)n(C2CCN(C(=S)NC(c3ccccc3)c3ccccc3)CC2)c2ccccc21 [Compound 63, Hydrochloride]
experimentalSystem: human V1a receptor (Homo sapiens)
pIC50: 7.30
//
compound: CC1CCN(CCCn2c(=O)n(C3CCN(C(=O)NC(c4ccccc4)c4ccccc4)CC3)c3ccccc32)CC1
experimentalSystem: human V1a receptor (Homo sapiens)
pIC50: 6.90
//
compound: O=c1n(CCCN2CCCCC2)c2ccccc2n1C1CCN(C(=S)NCc2ccccc2-c2ccccc2)CC1 [Compound 127]
experimentalSystem: human V1a receptor (Homo sapiens)
pIC50: 7.66
